assay: Liver microsome stability assay (Cyprotex), mouse; format: in vitro ADME; settings: mouse liver microsomes
Assign Mouse Microsome Stability to each entry below.
# number only, unit μL/min/mg protein dropped from output

Entry under test: CC(C)Cc1ccc(Nc2ncc(Nc3ccncc3OC3CCCC3)cn2)cc1 [Compound A53] . Its Mouse Microsome Stability was 19

Lab note: CC(C)Cc1ccc(Nc2ncc(Nc3ccnc4ccccc34)cn2)cc1 [Compound A11] gave Mouse Microsome Stability of 31.3

Summary for this compound, c1cc(Nc2cnc(Nc3ccc(C4CCC4)cc3)nc2)ccn1 [Compound A39] : Mouse Microsome Stability is 38.6

What the record says about Cc1cnccc1Nc1cnc(Nc2ccc(CC(C)C)cc2)nc1 [Compound A21] : Mouse Microsome Stability is 93.0
